B1: Amylosucrase, Q9ZEU2 (parent)
chain: MLTPTQQVGLILQYLKTRILDIYTPEQRAGIEKSEDWRQFSRRMDTHFPKLMNELDSVYGNNEALLPMLEMLLAQAWQSYSQRNSSLKDIDIARENNPDWILSNKQVGGVCYVDLFAGDLKGLKDKIPYFQELGLTYLHLMPLFKCPEGKSDGGYAVSSYRDVNPALGTIGDLREVIAALHEAGISAVVDFIFNHTSNEHEWAQRCAAGDPLFDNFYYIFPDRRMPDQYDRTLREIFPDQHPGGFSQLEDGRWVWTTFNSFQWDLNYSNPWVFRAMAGEMLFLANLGVDILRMDAVAFIWKQMGTSCENLPQAHALIRAFNAVMRIAAPAVFFKSEAIVHPDQVVQYIGQDECQIGYNPLQMALLWNTLATREVNLLHQALTYRHNLPEHTAWVNYVRSHDDIGWTFADEDAAYLGISGYDHRQFLNRFFVNRFDGSFARGVPFQYNPSTGDCRVSGTAAALVGLAQDDPHAVDRIKLLYSIALSTGGLPLIYLGDEVGTLNDDDWSQDSNKSDDSRWAHRPRYNEALYAQRNDPSTAAGQIYQGLRHMIAVRQSNPRFDGGRLVTFNTNNKHIIGYIRNNALLAFGNFSEYPQTVTAHTLQAMPFKAHDLIGGKTVSLNQDLTLQPYQVMWLEIA

# Variants of: B1
# experimental_context: Neisseria polysaccharea; pH 7; Thermal; DSF; Tris 50 mM; structure 1G5A; whole UniProt chain shown
measurement_label: change of melting temperature, mutant - wild type (higher = more stable) (°C)
Value expressed in °C; do not type the unit.

What does the record list as change of melting temperature, mutant - wild type (higher = more stable) for `Y155A` ? -1

Reported change of melting temperature, mutant - wild type (higher = more stable) for `R517A` : what is it? 0

Give the measured change of melting temperature, mutant - wild type (higher = more stable) of `H400K` . -1.6

Any idea what change of melting temperature, mutant - wild type (higher = more stable) was measured for `H400C` ? 0.8

Fill in: change of melting temperature, mutant - wild type (higher = more stable) of `F258N` is ___ -3.2

// change of melting temperature, mutant - wild type (higher = more stable) lookup, key: `H195C` -0.2

Which change of melting temperature, mutant - wild type (higher = more stable) value is on record for `H195N` ? -1.4

GET /values?readout=change of melting temperature, mutant - wild type (higher = more stable)&item= `D152I` -1.6

Query (variant): `H400S` ; field requested: change of melting temperature, mutant - wild type (higher = more stable) 0.2

# lookup: change of melting temperature, mutant - wild type (higher = more stable) of `D152A` 0.2

Need change of melting temperature, mutant - wild type (higher = more stable) of `H400N` , thanks. -0.2

Could you tell me which change of melting temperature, mutant - wild type (higher = more stable) is on file for `H195G` ? -2.8

Give its change of melting temperature, mutant - wild type (higher = more stable) value. Item: `H400G` 0.8

Requested field: change of melting temperature, mutant - wild type (higher = more stable). Item: `D515A` 0.8

Item under review: `R454A` . Reported change of melting temperature, mutant - wild type (higher = more stable)? -0.2

Given the variant `H195M` , what is its reported change of melting temperature, mutant - wild type (higher = more stable)? -0.2

Entry under review: `H195I` . Reported change of melting temperature, mutant - wild type (higher = more stable)? -6.6

Please look up its change of melting temperature, mutant - wild type (higher = more stable): `H400P` 2.2

Please look up its change of melting temperature, mutant - wild type (higher = more stable): `H400M` 0.4

Entry under review: `H400Q` . Reported change of melting temperature, mutant - wild type (higher = more stable)? -0.4

Look up change of melting temperature, mutant - wild type (higher = more stable): `H400V` 0.2

# change of melting temperature, mutant - wild type (higher = more stable) lookup, item `R292V` 1.8

Suppose we examine the variant `H400Y` ; what change of melting temperature, mutant - wild type (higher = more stable) value has been reported? 2

Name the reported change of melting temperature, mutant - wild type (higher = more stable) value associated with the variant `H195R` -5

Quick one: change of melting temperature, mutant - wild type (higher = more stable) for `H195V` ? -4

Query (variant): `H195T` ; field requested: change of melting temperature, mutant - wild type (higher = more stable) -4

Can you share its change of melting temperature, mutant - wild type (higher = more stable)? I mean this variant: `R292H` 0.4
